Test system: 429239-143-T-J1-PDC complex spheroid viability
MEASUREMENT_PROTOCOL: Anticancer human tumor 429239-143-T-J1-PDC patient-derived small cell lung carcinoma cell line growth inhibition [POLQ]
RUN_PARAMETERS: second compound 0.316 µM; first compound 0.0316 µM; hits give low values
QUANTITY: viability, T/C (%)
State the answer as a number, implicitly in %.

CCCS(=O)(=O)Nc1ccc(F)c(C(=O)c2c[nH]c3ncc(-c4ccc(Cl)cc4)cc23)c1F + COC1C(OC(N)=O)C(O)C(Oc2ccc3c(O)c(NC(=O)c4ccc(O)c(CC=C(C)C)c4)c(=O)oc3c2C)OC1(C)C
98.8

Complete the entry with viability, T/C for CCc1c2c(nc3ccc(O)cc13)-c1cc3c(c(=O)n1C2)COC(=O)[C@]3(O)CC + Nc1ccc(C#CCN(C(=O)Cc2ncc(C(F)(F)F)cc2C(F)(F)F)c2ccc(F)cc2)nn1
6.42

Report measured viability, T/C; entry is Nc1ccn(C2OC(CO)C(O)C2(F)F)c(=O)n1 (configuration not stated) + COC1C(OC(N)=O)C(O)C(Oc2ccc3c(O)c(NC(=O)c4ccc(O)c(CC=C(C)C)c4)c(=O)oc3c2C)OC1(C)C
22.2

====

System: 429239-143-T-J1-PDC complex spheroid viability
MEASUREMENT_PROTOCOL: Anticancer human tumor 429239-143-T-J1-PDC cell line growth inhibition [POLQ];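 also: luminescence signal used as surrogate measure of viable cells; spheroids exposed to compounds for seven days before readout; 100% = DMSO vehicle control viability as luminescence relative to vehicle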
RUN_PARAMETERS: second compound 3.16 µM; first compound 0.316 µM; hits give low values
Entries and their viability, T/C values follow.
Just the number please, in %, no unit attached.

The cases that follow already have their viability, T/C on record.
CCc1c2c(nc3ccc(O)cc13)-c1cc3c(c(=O)n1C2)COC(=O)[C@]3(O)CC + Cc1cccc(N(C)C(=O)C2C(O)CCN2c2nc(C)cc(C(F)(F)F)c2C#N)c1
14.9
COc1cc2cc(C(=O)CCC(=O)O)sc2cc1OC + COC1C(OC(N)=O)C(O)C(Oc2ccc3c(O)c(NC(=O)c4ccc(O)c(CC=C(C)C)c4)c(=O)oc3c2C)OC1(C)C
103
CCc1cc2c(N3CCc4c(cc(Cn5ccnc5)cc4-c4cn(C)nc4C(F)(F)F)C3=O)ccnc2c(OC)n1 + Cc1cccc(N(C)C(=O)C2C(O)CCN2c2nc(C)cc(C(F)(F)F)c2C#N)c1
96.5

State its viability, T/C: CNCc1ccc(-c2[nH]c3cc(F)cc4c3c2CCNC4=O)cc1 + Nc1ccc(C#CCN(C(=O)Cc2ncc(C(F)(F)F)cc2C(F)(F)F)c2ccc(F)cc2)nn1
94.7

Fill in reported viability, T/C for this entry: COc1cccc2c1C(=O)c1c(O)c3c(c(O)c1C2=O)CC(O)(C(=O)CO)CC3OC1CC(N)C(O)C(C)O1 (stereo unspecified) + COC1C(OC(N)=O)C(O)C(Oc2ccc3c(O)c(NC(=O)c4ccc(O)c(CC=C(C)C)c4)c(=O)oc3c2C)OC1(C)C
11.9

Give recorded viability, T/C. CC1COCCN1c1cc(C2(S(C)(=N)=O)CC2)nc(-c2ccnc3[nH]ccc23)n1 (stereo unspecified) + Cc1cccc(N(C)C(=O)C2C(O)CCN2c2nc(C)cc(C(F)(F)F)c2C#N)c1
94.5

Complete the entry with viability, T/C for C=CCn1c(=O)c2cnc(Nc3ccc(N4CCN(C)CC4)cc3)nc2n1-c1cccc(C(C)(C)O)n1 + Nc1ccc(C#CCN(C(=O)Cc2ncc(C(F)(F)F)cc2C(F)(F)F)c2ccc(F)cc2)nn1
90.3

Indicate the recorded viability, T/C value for this compound: O=c1[nH]cc(F)c(=O)[nH]1 + Nc1ccc(C#CCN(C(=O)Cc2ncc(C(F)(F)F)cc2C(F)(F)F)c2ccc(F)cc2)nn1
102

Look up and state reported viability, T/C for O=c1[nH]cc(F)c(=O)[nH]1 + Cc1cccc(N(C)C(=O)C2C(O)CCN2c2nc(C)cc(C(F)(F)F)c2C#N)c1
114

Consider the compound COc1cc(C2c3cc4c(cc3C(OC3OC5COC(C)OC5C(O)C3O)C3COC(=O)C23)OCO4)cc(OC)c1O (stereo unspecified) + Cc1cccc(N(C)C(=O)C2C(O)CCN2c2nc(C)cc(C(F)(F)F)c2C#N)c1 . State its measured viability, T/C.
38.8

Using the record for COc1cccc(OCCCN)c1-c1cc(Nc2cnc(C#N)cn2)n[nH]1 + COC1C(OC(N)=O)C(O)C(Oc2ccc3c(O)c(NC(=O)c4ccc(O)c(CC=C(C)C)c4)c(=O)oc3c2C)OC1(C)C , state its measured viability, T/C.
28.5
